target: plasma purified human complement protein C3 (human) (UniProt P01024); assay: cell-based or functional assay
Sequence (P01024 23-667, chain 1 of 2): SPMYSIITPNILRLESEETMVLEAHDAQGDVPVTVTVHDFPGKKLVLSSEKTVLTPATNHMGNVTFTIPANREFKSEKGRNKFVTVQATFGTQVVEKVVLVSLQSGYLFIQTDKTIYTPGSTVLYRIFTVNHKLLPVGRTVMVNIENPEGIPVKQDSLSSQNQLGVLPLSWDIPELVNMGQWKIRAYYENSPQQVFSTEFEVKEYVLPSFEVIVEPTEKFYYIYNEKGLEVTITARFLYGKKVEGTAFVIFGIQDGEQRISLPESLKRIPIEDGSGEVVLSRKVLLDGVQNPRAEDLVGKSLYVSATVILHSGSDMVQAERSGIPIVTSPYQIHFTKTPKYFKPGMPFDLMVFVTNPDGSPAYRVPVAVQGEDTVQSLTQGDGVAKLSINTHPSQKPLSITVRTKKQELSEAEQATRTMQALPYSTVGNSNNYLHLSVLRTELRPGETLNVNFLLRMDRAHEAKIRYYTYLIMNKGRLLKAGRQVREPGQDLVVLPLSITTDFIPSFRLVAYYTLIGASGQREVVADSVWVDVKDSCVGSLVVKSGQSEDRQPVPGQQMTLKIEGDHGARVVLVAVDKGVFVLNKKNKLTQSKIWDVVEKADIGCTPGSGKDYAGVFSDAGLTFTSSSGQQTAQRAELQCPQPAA
Sequence (P01024 672-1663, chain 2 of 2): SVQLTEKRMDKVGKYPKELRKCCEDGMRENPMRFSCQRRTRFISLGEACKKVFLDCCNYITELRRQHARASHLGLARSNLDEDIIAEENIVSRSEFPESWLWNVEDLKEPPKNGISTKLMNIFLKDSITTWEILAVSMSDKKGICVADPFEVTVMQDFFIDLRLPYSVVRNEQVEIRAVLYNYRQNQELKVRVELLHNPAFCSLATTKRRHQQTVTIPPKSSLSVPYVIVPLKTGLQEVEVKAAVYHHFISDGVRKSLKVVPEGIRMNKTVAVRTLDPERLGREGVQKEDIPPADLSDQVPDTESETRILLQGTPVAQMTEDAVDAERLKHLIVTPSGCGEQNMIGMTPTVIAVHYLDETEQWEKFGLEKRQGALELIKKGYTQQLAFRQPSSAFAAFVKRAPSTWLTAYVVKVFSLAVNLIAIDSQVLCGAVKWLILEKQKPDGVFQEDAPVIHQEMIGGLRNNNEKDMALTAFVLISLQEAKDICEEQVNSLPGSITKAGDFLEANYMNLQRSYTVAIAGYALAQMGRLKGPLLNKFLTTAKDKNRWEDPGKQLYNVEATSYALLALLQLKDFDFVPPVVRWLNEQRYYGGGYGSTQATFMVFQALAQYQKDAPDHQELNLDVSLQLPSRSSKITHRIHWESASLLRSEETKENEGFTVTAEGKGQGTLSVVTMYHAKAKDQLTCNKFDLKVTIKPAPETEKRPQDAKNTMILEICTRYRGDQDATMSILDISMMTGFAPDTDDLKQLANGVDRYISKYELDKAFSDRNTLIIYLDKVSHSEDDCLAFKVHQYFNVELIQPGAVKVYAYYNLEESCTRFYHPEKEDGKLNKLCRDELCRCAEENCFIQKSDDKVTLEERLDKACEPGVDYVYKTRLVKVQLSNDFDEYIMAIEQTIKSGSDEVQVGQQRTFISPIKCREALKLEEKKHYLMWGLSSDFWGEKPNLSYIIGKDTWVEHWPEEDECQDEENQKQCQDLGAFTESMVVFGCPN
readout_name: EC50 of hC3 cleavage (nM)
Give the value in nM but do not write nM after it.

Challenge: Annotate the binder MTSP-1 Q38H/I41S/L52M/D60bG/ins97aV/F97D/T98P/F99L/M117K/C122S/I136L/Q192G/D217A (enzyme) VVGGTDADEGEWPWQVSLHALGHGHSCGASLISPNWMVSAAHCYIDGRGFRYSDPTQWTAFLGLHDQSQRSAPGVQERRLKRIISHPFFNDDVPLDYDIALLELEKPAEYSSKVRPISLPDASHVFPAGKALWVTGWGHTQYGGTGALILQKGEIRVINQTTCENLLPQQITPRMMCVGFLSGGVDSCGGDSGGPLSSVEADGRIFQAGVVSWGAGCAQRNKPGVYTRLPLFRDWIKENTGV with its measured EC50 of hC3 cleavage.
Response given: 22

Challenge: Annotate the binder MTSP-1 H40R/I41H/F97D/C122S/G151N/L153R/V202M (enzyme) VVGGTDADEGEWPWQVSLHALGQGRHCGASLISPNWLVSAAHCYIDDRGFRYSDPTQWTAFLGLHDQSQRSAPGVQERRLKRIISHPFFNDDTFDYDIALLELEKPAEYSSMVRPISLPDASHVFPAGKAIWVTGWGHTQYGGTNARILQKGEIRVINQTTCENLLPQQITPRMMCVGFLSGGVDSCQGDSGGPLSSMEADGRIFQAGVVSWGDGCAQRNKPGVYTRLPLFRDWIKENTGV with its measured EC50 of hC3 cleavage.
Response given: 103

Challenge: Annotate the binder MTSP-1 H40R/I41H/F97D/ins97aV/T98P/F99L/C122S/Q175R/Q192G/D217E/K224R (enzyme) VVGGTDADEGEWPWQVSLHALGQGRHCGASLISPNWLVSAAHCYIDDRGFRYSDPTQWTAFLGLHDQSQRSAPGVQERRLKRIISHPFFNDDVPLDYDIALLELEKPAEYSSMVRPISLPDASHVFPAGKAIWVTGWGHTQYGGTGALILQKGEIRVINQTTCENLLPQRITPRMMCVGFLSGGVDSCGGDSGGPLSSVEADGRIFQAGVVSWGEGCAQRNRPGVYTRLPLFRDWIKENTGV with its measured EC50 of hC3 cleavage.
Response given: 65.8

Challenge: Annotate the binder MTSP-1 H40R/I41H/F97T/ins97aE/T98G/F99L/C122S/Q175L/Q192E (enzyme) VVGGTDADEGEWPWQVSLHALGQGRHCGASLISPNWLVSAAHCYIDDRGFRYSDPTQWTAFLGLHDQSQRSAPGVQERRLKRIISHPFFNDTEGLDYDIALLELEKPAEYSSMVRPISLPDASHVFPAGKAIWVTGWGHTQYGGTGALILQKGEIRVINQTTCENLLPQLITPRMMCVGFLSGGVDSCEGDSGGPLSSVEADGRIFQAGVVSWGDGCAQRNKPGVYTRLPLFRDWIKENTGV with its measured EC50 of hC3 cleavage.
Response given: 5860

Challenge: Annotate the binder MTSP-1 I41R/ins97aE/F97T/T98G/F99L/C122S/G151D/Q175I/Q192D (enzyme) VVGGTDADEGEWPWQVSLHALGQGHRCGASLISPNWLVSAAHCYIDDRGFRYSDPTQWTAFLGLHDQSQRSAPGVQERRLKRIISHPFFNDTEGLDYDIALLELEKPAEYSSMVRPISLPDASHVFPAGKAIWVTGWGHTQYGGTDALILQKGEIRVINQTTCENLLPQIITPRMMCVGFLSGGVDSCDGDSGGPLSSVEADGRIFQAGVVSWGDGCAQRNKPGVYTRLPLFRDWIKENTGV with its measured EC50 of hC3 cleavage.
Response given: 1750
